The reported numbers originate from ChEMBL document CHEMBL5608180.

Tested on: Trypanosoma cruzi
protocol: Antiparasitic activity against epimastigote form of Trypanosoma cruzi Y(TcII) assessed as inhibition of parasite growth incubated for 96 hrs followed by incubation with resazurin for 4 to 6 hrs by resazurin dye based fluorescence analysis
Assay type: functional, organism-based
measured-quantity: pIC50
Worth noting: pIC50 values are minus log10 of concentrations stated in mol/L.

[Q] Looking for the measured pIC50 of "Cc1sc(-c2ccc(CC[N+](C)(C)C)cc2)cc1C1=C(c2cc(-c3ccc(CC[N+](C)(C)C)cc3)sc2C)CCC1" , can you help?
[A] 4.85

[Q] Looking for the measured pIC50 of "Cc1sc(-c2cccc3c2ccc[n+]3C)cc1C1=C(c2cc(-c3cccc4c3ccc[n+]4C)sc2C)CCC1" , can you help?
[A] 4.64

[Q] Looking for the measured pIC50 of "Cc1sc(-c2cc[n+](C)cc2)cc1C1=C(c2cc(-c3cc[n+](C)cc3)sc2C)CCC1" , can you help?
[A] 4.64

[Q] Looking for the measured pIC50 of "C[C@]12SC(c3ccncc3)=CC1=C1CCCC1=C1C=C(c3ccncc3)S[C@@]12C" , can you help?
[A] 4.86
